tested on: Fibroblast; test: Multiplex assay against human fibroblast; format: toxicity, cell-based; settings: 48 h, 1 µM, compound concentration 1 uM, number of replicates 2
// reported Population Normal (%) for each item listed
Quote the value and follow it with the unit of measurement.

>>> assay_result("CS(=O)(=O)c1ccc(C(=O)Nc2cc(F)c(F)c(COc3cc(F)c(Br)cc3CN3CC[C@H](O)C3)c2)c(Cl)c1.O=CO")
"99%"
>>> assay_result("Cc1ccc2c(N)c(C(=O)NC3CCc4cc(N5CC6CCC(C5)N6)ccc4C3)sc2n1.O=CO (stereo unspecified)")
"99%"
>>> assay_result("COc1cc(N(C)c2ccnc3ccc(C(F)(F)F)cc23)cc(OC)c1OC")
"100%"

Prompt: Need Population Normal (%), item `CC(C)c1c(NC(=O)Nc2ccc(Cl)cc2)c(=O)n(-c2ccccc2)n1C`
Response: 100%

Prompt: Also check `COc1ccccc1-c1cc(Nc2cccc(CS(N)(=O)=O)c2)ncn1`
Response: 99%

Prompt: Also check `CC(C)N1CCN(Cc2cnc(-c3cc(-c4cccc5[nH]ccc45)cc4[nH]ncc34)o2)CC1`
Response: 100%

Prompt: Also check `C=CC(=O)Nc1cccc(C)c1Nc1ncc2cc(-c3c(Cl)c(OC)cc(OC)c3Cl)ccc2n1`
Response: 100%

Prompt: Also check `COc1cc(C(N)=O)ccc1Nc1ncc2c(n1)N(CCC(C)C)[C@H](C)C(=O)N2C`
Response: 100%

Prompt: Also check `CCN1C(=O)N(c2c(F)c(OC)cc(OC)c2F)Cc2cnc3[nH]c(CN4CCOCC4)cc3c21`
Response: 99%

Prompt: Also check `CC(C)NC(=O)[C@H]1CCC[C@H]1Nc1nc(Nc2ccc(C(=O)N(C)C3CCN(C)CC3)cc2)ncc1Cl`
Response: 100%

Prompt: Also check `O=C1NC(=O)C(c2ccccc2[N+](=O)[O-])=C1Nc1ccc(O)c(Cl)c1`
Response: 100%

###

tested on: HEK-293T; test: Multiplex assay against HEK293T; format: toxicity, cell-based; conditions: human, 48 h, 10 µM, compound concentration 10 uM, number of replicates 2
// reported Population Membrane Permeable-Phenotype (%) for each item listed
Numeric answer only, unit % assumed.

Look over these answered cases.
>>> assay_result("Cn1cc(-c2ccc(-c3cncc(Cl)c3N3CCC4(CCNC4=O)CC3)cc2)cn1")
8
>>> assay_result("COc1ccc(CC[C@@H](OC(=O)[C@@H]2CCCCN2C(=O)[C@H](c2cc(OC)c(OC)c(OC)c2)C2CCCCC2)c2cccc(OCCN3CCOCC3)c2)cc1OC")
1
>>> assay_result("COc1ccccc1-c1cc(Nc2cccc(CS(N)(=O)=O)c2)ncn1")
3
>>> assay_result("NC(=O)c1ccc(-c2nc(-c3ccc4c(c3)OCCO4)c(-c3ccccn3)[nH]2)cc1")
5

Prompt: Need Population Membrane Permeable-Phenotype (%), item CC(C)(C)c1cnc(CSc2cnc(NC(=O)C3CCNCC3)s2)o1 [BMS-387032]
Response: 2

Prompt: Also check COc1ccc(F)c(F)c1C(=O)c1cnc(NC2CCN(S(C)(=O)=O)CC2)nc1N [RG-547]
Response: 0

Prompt: Also check `C=CC(=O)Nc1cccc(C)c1Nc1ncc2cc(-c3c(Cl)c(OC)cc(OC)c3Cl)ccc2n1`
Response: 1

Prompt: Also check CC(=O)O[C@H]1C(=O)[C@@]2(C)[C@H]([C@H](OC(=O)c3ccccc3)[C@]3(O)C[C@H](OC(=O)[C@H](O)[C@@H](NC(=O)c4ccccc4)c4ccccc4)C(C)=C1C3(C)C)[C@]1(OC(C)=O)CO[C@@H]1C[C@@H]2O [PACLITAXEL]
Response: 0

###

// reported Population Normal (%) for each item listed
system: HEK-293T; assay: Multiplex assay against HEK293T; format: toxicity, cell-based; conditions: human, 12 h, 10 µM, compound concentration 10 uM, number of replicates 2
Numeric answer only, unit % assumed.

>>> assay_result("Cc1cn(CCN2CCN(c3ccccc3-c3cc(C#N)cc(C(=O)NCCCN4CCCC4)c3)CC2)c2ccccc12")
94
>>> assay_result("COc1ccncc1C(=O)NC(=O)Nc1ccc(-c2ccccc2)c(C(F)(F)F)c1")
92
>>> assay_result("COc1ccccc1-c1cc(Nc2cccc(CS(N)(=O)=O)c2)ncn1")
92
>>> assay_result("CC1=C(C)C(=O)C(C(CCCCCC(=O)O)c2ccccc2)=C(C)C1=O (stereo unspecified)")
92
>>> assay_result("Cn1cc(-c2ccc(-c3cncc(Cl)c3N3CCC4(CCNC4=O)CC3)cc2)cn1")
92

Prompt: Give HEK-293T Population Normal (%) for `COc1cc(N(C)c2ccnc3ccc(C(F)(F)F)cc23)cc(OC)c1OC`
Response: 94

Prompt: Also check `CC(C)c1cc(-c2ccc(F)c3ccccc23)nc(N)n1`
Response: 92

Prompt: Also check `O=C(Nc1ccnc(NC(=O)C2CC2)c1)c1c(Cl)cccc1Cl`
Response: 96

Prompt: Also check `CNS(=O)(=O)c1ccc(N(C)C)c(Nc2ncnc3cc(OC)c(OC)cc23)c1`
Response: 92

Prompt: Also check `CNc1ncc2cc(-c3ccc(-c4cccc(C)n4)cc3Cl)c(=O)n(C[C@H]3OC[C@H](N)CO3)c2n1`
Response: 69

Prompt: Also check `CSc1cc2c(cc1C(F)(F)F)N(C(=O)Nc1cccnc1)CC2`
Response: 94

###

// reported Population Fragmented Nuclei (%) for each item listed
tested on: HEK-293T; assay: Multiplex assay against HEK293T; format: toxicity, cell-based; details: human, 48 h, 1 µM, compound concentration 1 uM, number of replicates 2
Numeric answer only, unit % assumed.

Prompt: Give HEK-293T Population Fragmented Nuclei (%) for Cc1ccc2c(N)c(C(=O)NC3CCc4cc(N5CC6CCC(C5)N6)ccc4C3)sc2n1.O=CO (stereo not given)
Response: 5

Prompt: Also check `CCN(CC)C/C=C/C(=O)Nc1cc2c(Nc3ccc(F)c(Cl)c3)ncnc2cc1OCC1CC1`
Response: 9

Prompt: Also check CC(C)S(=O)(=O)c1ccccc1Nc1nc(N[C@@H]2CCCN(CCCCCCCNC(=O)COc3cccc4c3C(=O)N(C3CCC(=O)NC3=O)C4=O)C2)ncc1Cl (stereo not given in full)
Response: 3

Prompt: Also check `COc1ccc(F)c(F)c1C(=O)c1cnc(NC2CCN(S(C)(=O)=O)CC2)nc1N`
Response: 11

Prompt: Also check `COc1ccncc1C(=O)NC(=O)Nc1ccc(-c2ccccc2)c(C(F)(F)F)c1`
Response: 11

###

system: HEK-293T; assay: Multiplex assay against HEK293T; format: toxicity, cell-based; conditions: human, 24 h, 10 µM, compound concentration 10 uM, number of replicates 2
READOUT_LABEL: Population Membrane Permeable-Phenotype (%)
Numeric answer only, unit % assumed.

>>> assay_result("O=C(Nc1ccnc(NC(=O)C2CC2)c1)c1c(Cl)cccc1Cl")
1

Prompt: Need Population Membrane Permeable-Phenotype (%), item `CCN1C(=O)N(c2c(F)c(OC)cc(OC)c2F)Cc2cnc3[nH]c(CN4CCOCC4)cc3c21`
Response: 1

Prompt: Also check `CC(=O)O[C@H]1C(=O)[C@@]2(C)[C@H]([C@H](OC(=O)c3ccccc3)[C@]3(O)C[C@H](OC(=O)[C@H](O)[C@@H](NC(=O)c4ccccc4)c4ccccc4)C(C)=C1C3(C)C)[C@]1(OC(C)=O)CO[C@@H]1C[C@@H]2O`
Response: 0

Prompt: Also check `COc1ccc(F)c(F)c1C(=O)c1cnc(NC2CCN(S(C)(=O)=O)CC2)nc1N`
Response: 0

Prompt: Also check `CC(C)c1c(NC(=O)Nc2ccc(Cl)cc2)c(=O)n(-c2ccccc2)n1C`
Response: 3

Prompt: Also check `COc1ccncc1C(=O)NC(=O)Nc1ccc(-c2ccccc2)c(C(F)(F)F)c1`
Response: 2

###

test system: Fibroblast; assay: Multiplex assay against human fibroblast; assay type: toxicity, cell-based; conditions: 48 h, 10 µM, compound concentration 10 uM, number of replicates 2
// reported Population Normal (%) for each item listed
Quote the value and follow it with the unit of measurement.

Look over these answered cases.
>>> assay_result("COc1ccncc1C(=O)NC(=O)Nc1ccc(-c2ccccc2)c(C(F)(F)F)c1")
"100%"
>>> assay_result("CC(C)c1cc(-c2ccc(F)c3ccccc23)nc(N)n1")
"100%"

Prompt: Need Population Normal (%), item `COc1ccccc1-c1cc(Nc2cccc(CS(N)(=O)=O)c2)ncn1`
Response: 100%

Prompt: Also check `O=C1NC(=O)C(c2ccccc2[N+](=O)[O-])=C1Nc1ccc(O)c(Cl)c1`
Response: 100%

Prompt: Also check `CN(C)CCCNc1ccnc(Nc2cccc(Cl)c2)n1`
Response: 93%

Prompt: Also check `CN1CCc2cc(Nc3ncc(C(F)(F)F)c(NCc4cc[nH]n4)n3)ccc2C1`
Response: 100%

Prompt: Also check `CCN(CC)C/C=C/C(=O)Nc1cc2c(Nc3ccc(F)c(Cl)c3)ncnc2cc1OCC1CC1`
Response: 100%

Prompt: Also check `CSc1cc2c(cc1C(F)(F)F)N(C(=O)Nc1cccnc1)CC2`
Response: 100%

Prompt: Also check `O=C1NC(=NCc2cccs2)SC1=Cc1ccc2ncccc2c1`
Response: 100%

Prompt: Also check `O=C(Nc1ccnc(NC(=O)C2CC2)c1)c1c(Cl)cccc1Cl`
Response: 100%

Prompt: Also check CC(C)(C)c1cnc(CSc2cnc(NC(=O)C3CCNCC3)s2)o1 [BMS-387032]
Response: 100%

Prompt: Also check `CS(=O)(=O)c1ccc(C(=O)Nc2cc(F)c(F)c(COc3cc(F)c(Br)cc3CN3CC[C@H](O)C3)c2)c(Cl)c1.O=CO`
Response: 99%

Prompt: Also check `c1ccc2c(-c3coc4cc(-c5ccc(N6CCNCC6)cc5)cnc34)ccnc2c1`
Response: 99%

Prompt: Also check `CCOC(=O)Nc1cc(-c2ccc(C)c(NS(C)(=O)=O)c2)nn2c(C)nnc12`
Response: 100%

Origin of measurements: ChEMBL document CHEMBL5303300
